Test: Half life in beagle dog at 5 mg/kg, po
Format: ADME, organism-based, Canis lupus familiaris
Set-up: dose 5 mg/kg, route oral
Conditions: in vivo
ASSAY READOUT: half-life (h)
Answer in h, number only, no unit symbol.

Quick note, half-life for "C[C@@]1(c2cc(-c3cncnc3)c(F)cc2F)CCSC(N)=N1" landed at 6.8

====

Exercise: for every item that follows, state its recorded INH.
Target: Beta-secretase 1 (Homo sapiens) (UniProt P56817)
Sequence (P56817 whole entry): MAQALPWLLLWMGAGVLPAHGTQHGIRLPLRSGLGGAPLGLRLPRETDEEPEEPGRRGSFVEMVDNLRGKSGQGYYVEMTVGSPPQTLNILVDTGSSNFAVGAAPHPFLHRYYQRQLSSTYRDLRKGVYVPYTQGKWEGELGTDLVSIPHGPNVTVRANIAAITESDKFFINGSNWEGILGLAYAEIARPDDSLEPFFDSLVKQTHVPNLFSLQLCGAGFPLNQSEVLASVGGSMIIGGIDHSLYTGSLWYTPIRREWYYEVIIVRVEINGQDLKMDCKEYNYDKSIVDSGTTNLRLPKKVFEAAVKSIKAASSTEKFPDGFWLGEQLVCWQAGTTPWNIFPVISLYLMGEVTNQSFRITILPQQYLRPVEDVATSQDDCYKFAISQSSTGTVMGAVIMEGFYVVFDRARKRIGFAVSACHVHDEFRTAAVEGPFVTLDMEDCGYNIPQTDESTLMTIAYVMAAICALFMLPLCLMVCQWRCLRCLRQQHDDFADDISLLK
Assay: Inhibition of BACE1 (unknown origin) in a cell-based assay
Answer in µM, number only, no unit symbol.

Quick note, INH for "CC(C)C[C@H](NC(=O)[C@@H]1CC(=O)NCCCCCCOC(=O)N[C@@H](C(C)C)C(=O)N1)[C@@H](O)C[C@@H](C)C(=O)N[C@H](C(=O)NCc1ccccc1)C(C)C" landed at 4

Quick note, INH for "C[C@@H](NC(=O)c1cc(C(=O)N[C@@H](Cc2ccccc2)[C@H](O)[C@@H]2NC(C)(C)N(C)C2=O)cc(N(C)S(C)(=O)=O)c1)c1ccc(F)cc1" landed at 18

Quick note, INH for "C[C@@H]1N[C@@H]([C@@H](O)[C@H](Cc2ccccc2)NC(=O)c2cc(C(=O)N[C@H](C)c3ccc(F)cc3)cc(N(C)S(C)(=O)=O)c2)C(=O)N1Cc1ccccc1" landed at 0.028

Quick note, INH for "C[C@@H](NC(=O)c1cc(C(=O)N[C@@H](Cc2ccccc2)[C@H](O)[C@@H]2NC(C)(C)N(Cc3ccccc3)C2=O)cc(N(C)S(C)(=O)=O)c1)c1ccc(F)cc1" landed at 0.03

====

Test: Plasma concentration in beagle dog at 5 mg/kg, po after 1 hr
Type: ADME, organism-based, Canis lupus familiaris
Parameters: dose 5 mg/kg, route oral
ASSAY READOUT: concentration at 1 h (ng/mL)
Answer in ng/mL, number only, no unit symbol.

Quick note, concentration at 1 h for C[C@@]1(c2cc(-c3cncnc3)c(F)cc2F)CCSC(N)=N1 [LY-2811376] landed at 1920
